Property: CC50 at 72 h; scope: individual molecules
Assay Info: Animal cytotoxicity, CCK-8 assay in MDBK cells
Assay type: cell-based, bovine
Condition Details: bovine

Smiles Repr	CC50 at 72 h
CCC[C@H](NC(=O)CN1C(=O)SC(=Cc2ccc3c(c2)OCO3)C1=O)C(=O)OCC	97.1 µM
Cc1ccc(C(=O)Nc2ccc(S(=O)(=O)O)c3cc(S(=O)(=O)O)cc(S(=O)(=O)O)c23)cc1NC(=O)c1cccc(NC(=O)Nc2cccc(C(=O)Nc3cc(C(=O)Nc4ccc(S(=O)(=O)O)c5cc(S(=O)(=O)O)cc(S(=O)(=O)O)c45)ccc3C)c2)c1	> 70 µM

###

Test system: Madin‐Darby bovine kidney (MDBK) cell line
Assay Info: Animal cytotoxicity, CCK-8 assay in MDBK cells
Assay type: cell-based
Condition Details: read-out: Cytotoxicity CC50 ± SD MDBK, 72 h
Reported Metric: CC50

In [3]: df
Out[3]:
                                   molecule  measured
0  N=C(N)c1ccc(N=NNc2ccc(C(=N)N)cc2)cc1 [Diminazene aceturate, diminazene aceturate]  > 355 µM

###

Assay Info: General cytotoxicity, resazurin assay in Vero cells
Type: cell-based
Condition Details: African green monkey
Reported Metric: CC50 at 72 h

In [3]: df
Out[3]:
                                smiles_repr  measured
0  CC[C@H]1CN2CCc3cc(OC)c(OC)cc3[C@@H]2C[C@@H]1C[C@H]1NCCc2cc(OC)c(OC)cc21     80 nM

###

System: T. equiperdum strain IVM‐t1
Assay Info: Antitrypanosomal Cell-TiterGlo assay, T. equiperdum
Type: cell-based, Trypanosoma equiperdum
Condition Details: read-out: Antitrypomastigote activity IC50 ± SD; Teq IVM‐t1, 72 h
Reported Metric: IC50 (nM)

In [3]: df
Out[3]:
                                   molecule  measured
0  N=C(N)c1ccc(N=NNc2ccc(C(=N)N)cc2)cc1 [Diminazene aceturate, diminazene aceturate]        22

###

Test system: T. congolense strain IL3000
Assay Info: Antitrypanosomal Cell-TiterGlo assay, T. congolense
Type: cell-based, Trypanosoma congolense
Condition Details: read-out: Antitrypomastigote activity IC50 ± SD; Tc IL3000, 72 h
Reported Metric: IC50

>>> df
                                   compound  reported_metric  measured
0  N=C(N)c1ccc(N=NNc2ccc(C(=N)N)cc2)cc1 [Diminazene aceturate, diminazene aceturate]             IC50     90 nM
